test: Lipophilic-hydrophilic balance, Rm of the compound using mixture of glycerol, i-BuOH and 1-pentanol plus methanesulfonic acid as solvent system by acidic reversed-phase chromatography; format: physicochemical
property-name: Rm
Give bare numbers.

CS(=O)(=O)OCCNCCOS(C)(=O)=O.Cl    -1.13
CCCS(=O)(=O)OCCCCCCNCCCOS(=O)(=O)CCC.Cl    0.32
CCCS(=O)(=O)OCCCNCCCOS(=O)(=O)CCC.Cl    0.09
CCCCS(=O)(=O)OCCNCCCCCCOS(=O)(=O)CCC.Cl    0.51
CCCCS(=O)(=O)OCCCNCCCOS(=O)(=O)CCCC.Cl    0.45

Give measured Rm for every item shown.
1. CS(=O)(=O)OCCCCCCNCCCOS(C)(=O)=O.Cl
2. CCCCS(=O)(=O)OCCNCCOS(=O)(=O)CCCC.Cl
3. CCS(=O)(=O)OCCNCCOS(=O)(=O)CC.Cl
4. CCCS(=O)(=O)OCCCCCCNCCOS(=O)(=O)CCC.Cl
5. CS(=O)(=O)OCCCCCCNCCOS(C)(=O)=O.Cl

Out:
-0.65
0.37
-0.64
0.27
-0.71

Ref: ChEMBL document CHEMBL3244033
